biological target: hTRPV1 (Homo sapiens, UniProt Q8NER1); test: FLIPR inhibition of TRPV1 activation by capsaicin; type: cell-based; conditions: capsaicin 100 nM, hTRPV1 in CHO cells
Sequence (Q8NER1 whole entry): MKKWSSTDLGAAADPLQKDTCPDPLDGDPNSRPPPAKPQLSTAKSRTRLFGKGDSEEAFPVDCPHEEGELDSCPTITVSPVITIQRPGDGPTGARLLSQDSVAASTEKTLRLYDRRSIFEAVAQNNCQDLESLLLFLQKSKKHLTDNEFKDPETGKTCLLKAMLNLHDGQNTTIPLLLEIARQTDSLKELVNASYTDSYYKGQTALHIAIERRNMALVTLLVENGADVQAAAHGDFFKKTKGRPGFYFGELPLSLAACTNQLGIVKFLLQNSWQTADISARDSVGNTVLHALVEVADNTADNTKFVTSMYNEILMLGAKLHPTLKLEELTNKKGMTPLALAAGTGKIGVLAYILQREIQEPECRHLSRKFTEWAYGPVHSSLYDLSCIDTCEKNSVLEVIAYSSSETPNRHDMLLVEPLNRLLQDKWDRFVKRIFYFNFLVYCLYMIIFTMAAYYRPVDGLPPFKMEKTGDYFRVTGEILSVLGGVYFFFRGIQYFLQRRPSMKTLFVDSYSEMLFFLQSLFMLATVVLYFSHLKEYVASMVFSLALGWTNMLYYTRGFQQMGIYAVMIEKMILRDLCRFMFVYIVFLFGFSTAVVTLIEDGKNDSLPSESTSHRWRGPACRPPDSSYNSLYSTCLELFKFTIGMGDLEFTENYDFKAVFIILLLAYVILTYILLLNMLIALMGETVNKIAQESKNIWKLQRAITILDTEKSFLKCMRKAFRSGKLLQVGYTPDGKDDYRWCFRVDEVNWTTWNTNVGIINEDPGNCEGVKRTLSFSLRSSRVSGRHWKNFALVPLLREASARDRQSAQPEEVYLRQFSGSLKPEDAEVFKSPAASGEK

{"compound": "CC(C(=O)NCc1ccc(C(F)(F)F)nc1-c1ccc(Cl)c(Cl)c1)c1ccc(NS(C)(=O)=O)c(F)c1 (centres unmarked) [Compound 20]", "antagonism toward capsaicin (in words)": "retained high potencies"}
{"compound": "CC(C(=O)NCc1ccc(C(F)(F)F)nc1Cc1ccccc1)c1ccc(NS(C)(=O)=O)c(F)c1 (centres unmarked) [Compound 35]", "antagonism toward capsaicin (in words)": "weak antagonist"}
{"compound": "Cc1cc(-c2nc(C(F)(F)F)ccc2CNC(=O)C(C)c2ccc(NS(C)(=O)=O)c(F)c2)ccc1F (centres unmarked) [Compound 19]", "antagonism toward capsaicin (in words)": "retained high potencies"}
{"compound": "CC(C(=O)NCc1ccc(C(F)(F)F)nc1-n1ccnc1)c1ccc(NS(C)(=O)=O)c(F)c1 (centres unmarked) [Compound 30]", "antagonism toward capsaicin (in words)": "weak antagonist"}
